# Test system: MDA-MB-231 cells
# protocol summary: Antiproliferation assay (CCK-8), MDA-MB-231
# Type: cell-based
# test context: Homo sapiens, MDA-MB-231, 72 h, read-out: IC50 antiproliferative MDA-MB0231
readout kind: pIC50
Here pIC50 is given on a logarithmic scale as minus log10 of the concentration in mol/L.

Can you share its pIC50? I mean this compound: CN1CCN(CC(=O)Nc2ccc(Nc3nccc(Oc4ccc(NC(=O)C5(C(=O)Nc6ccc(F)cc6)CC5)cc4)n3)cc2)CC1 [Compound 18c]
5.05

---

# assay system: c-Met kinase (Homo sapiens)
# Sequence (P08581 25-1390): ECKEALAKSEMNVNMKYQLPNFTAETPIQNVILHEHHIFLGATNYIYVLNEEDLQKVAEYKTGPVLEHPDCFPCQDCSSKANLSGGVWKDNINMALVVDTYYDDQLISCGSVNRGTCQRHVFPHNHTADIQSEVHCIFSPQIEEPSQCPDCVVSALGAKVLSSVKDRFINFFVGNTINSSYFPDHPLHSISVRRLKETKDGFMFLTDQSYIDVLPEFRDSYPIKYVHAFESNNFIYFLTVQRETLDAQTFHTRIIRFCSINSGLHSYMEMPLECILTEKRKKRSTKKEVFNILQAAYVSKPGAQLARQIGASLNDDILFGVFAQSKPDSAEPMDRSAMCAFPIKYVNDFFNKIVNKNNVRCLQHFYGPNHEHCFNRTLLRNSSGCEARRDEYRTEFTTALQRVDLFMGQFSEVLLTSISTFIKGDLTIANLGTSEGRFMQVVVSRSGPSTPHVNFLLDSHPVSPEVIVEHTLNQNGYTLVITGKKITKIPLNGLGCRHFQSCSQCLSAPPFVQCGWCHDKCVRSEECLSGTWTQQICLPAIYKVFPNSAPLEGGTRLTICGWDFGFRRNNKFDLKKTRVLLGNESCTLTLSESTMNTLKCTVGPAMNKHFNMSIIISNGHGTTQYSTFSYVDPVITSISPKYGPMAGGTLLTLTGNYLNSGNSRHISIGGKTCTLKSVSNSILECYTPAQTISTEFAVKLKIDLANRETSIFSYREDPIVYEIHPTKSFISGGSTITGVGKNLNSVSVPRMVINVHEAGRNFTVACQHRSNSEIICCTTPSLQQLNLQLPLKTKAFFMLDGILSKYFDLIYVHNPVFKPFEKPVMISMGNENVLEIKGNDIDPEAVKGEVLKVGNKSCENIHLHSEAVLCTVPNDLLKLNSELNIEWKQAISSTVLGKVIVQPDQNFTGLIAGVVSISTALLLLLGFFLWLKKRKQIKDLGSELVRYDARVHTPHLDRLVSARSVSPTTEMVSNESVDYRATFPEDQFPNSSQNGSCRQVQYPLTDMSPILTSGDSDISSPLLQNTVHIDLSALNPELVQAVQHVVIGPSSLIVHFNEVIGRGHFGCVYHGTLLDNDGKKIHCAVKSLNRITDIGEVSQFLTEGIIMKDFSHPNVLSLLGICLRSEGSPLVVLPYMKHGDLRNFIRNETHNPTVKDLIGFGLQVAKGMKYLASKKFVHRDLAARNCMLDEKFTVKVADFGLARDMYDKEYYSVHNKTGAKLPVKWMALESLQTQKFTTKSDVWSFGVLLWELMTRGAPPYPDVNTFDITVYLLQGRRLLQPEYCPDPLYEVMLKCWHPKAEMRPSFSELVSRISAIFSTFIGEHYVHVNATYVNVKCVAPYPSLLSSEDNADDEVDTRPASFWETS
# protocol summary: c-Met kinase inhibitory activity assay (in vitro)
# Format: biochemical
# test context: ATP 30 uM, enzyme 0.25 nM; means from three independent experiments
readout kind: IC50 (nM)
Expressed in nM, but write only the number.

Use the examples below as a reference point.
[
  {
    "molecule": "Cc1c(C(=O)Nc2ccc(Oc3ccnc(Nc4cccc(NC(=O)CN5CCN(C)CC5)c4)n3)cc2)c(=O)n(-c2ccccc2)n1C [Compound 14d]",
    "measure unit": "nM",
    "IC50": 144
  },
  {
    "molecule": "Cc1c(C(=O)Nc2ccc(Oc3ccnc(Nc4ccc(NC(=O)CN5CCN(C)CC5)c(F)c4)n3)cc2)c(=O)n(-c2ccccc2)n1C [Compound 14h]",
    "measure unit": "nM",
    "IC50": 74.9
  }
]

Can you share its IC50? I mean this molecule: CN1CCN(CC(=O)Nc2cccc(Nc3nccc(Oc4ccc(NC(=O)C5(C(=O)Nc6ccc(F)cc6)CC5)cc4)n3)c2)CC1 [Compound 18o]
39.8

---

# assay system: Mer kinase (Homo sapiens)
# Sequence (Q12866 21-999): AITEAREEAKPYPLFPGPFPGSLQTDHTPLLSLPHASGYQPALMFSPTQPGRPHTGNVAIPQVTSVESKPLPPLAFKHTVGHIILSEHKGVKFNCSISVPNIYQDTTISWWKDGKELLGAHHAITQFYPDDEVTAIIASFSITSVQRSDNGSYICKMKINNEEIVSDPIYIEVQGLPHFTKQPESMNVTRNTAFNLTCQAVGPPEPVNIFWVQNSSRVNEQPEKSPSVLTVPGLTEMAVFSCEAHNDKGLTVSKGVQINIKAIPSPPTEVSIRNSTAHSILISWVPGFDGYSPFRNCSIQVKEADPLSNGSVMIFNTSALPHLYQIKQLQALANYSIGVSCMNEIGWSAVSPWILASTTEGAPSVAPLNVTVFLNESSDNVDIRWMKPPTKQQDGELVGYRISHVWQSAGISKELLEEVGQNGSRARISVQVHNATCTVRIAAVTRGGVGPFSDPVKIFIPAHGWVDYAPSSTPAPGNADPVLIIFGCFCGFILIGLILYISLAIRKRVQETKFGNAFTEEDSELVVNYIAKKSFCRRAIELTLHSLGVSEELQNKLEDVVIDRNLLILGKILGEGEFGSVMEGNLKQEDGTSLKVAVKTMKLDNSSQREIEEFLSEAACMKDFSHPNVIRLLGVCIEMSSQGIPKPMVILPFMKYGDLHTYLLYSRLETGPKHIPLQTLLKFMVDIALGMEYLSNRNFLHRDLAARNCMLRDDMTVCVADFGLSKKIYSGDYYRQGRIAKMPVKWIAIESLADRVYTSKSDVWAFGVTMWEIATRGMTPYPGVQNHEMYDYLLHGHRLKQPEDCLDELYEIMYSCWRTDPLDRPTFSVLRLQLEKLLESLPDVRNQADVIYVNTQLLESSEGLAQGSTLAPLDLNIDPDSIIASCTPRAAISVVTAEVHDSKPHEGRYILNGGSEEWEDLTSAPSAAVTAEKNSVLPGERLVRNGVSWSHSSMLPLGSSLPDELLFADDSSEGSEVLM
Recorded IC50 split into classes low interval: < 20 nM; middle interval: ≥ 20 nM and < 60 nM; high interval: ≥ 60 nM

The following compounds have reported results that may help.
[
  {
    "compound": "COCCNc1ccc(Nc2nccc(Oc3ccc(NC(=O)C4(C(=O)Nc5ccc(F)cc5)CC4)cc3)n2)cc1 [Compound 18e]",
    "assay system": "Mer kinase (Homo sapiens)",
    "assigned label": "high interval"
  },
  {
    "compound": "CC(C)N1CCN(CC(=O)Nc2ccc(Nc3nccc(Oc4ccc(NC(=O)C5(C(=O)Nc6ccc(F)cc6)CC5)cc4)n3)cc2)CC1 [Compound 18h]",
    "assay system": "Mer kinase (Homo sapiens)",
    "assigned label": "low interval"
  },
  {
    "compound": "CN1CCN(CC(=O)Nc2ccc(Nc3nccc(Oc4ccc(NC(=O)C5(C(=O)Nc6ccc(F)cc6)CC5)cc4)n3)cc2C#N)CC1 [Compound 18k]",
    "assay system": "Mer kinase (Homo sapiens)",
    "assigned label": "low interval"
  },
  {
    "compound": "Cc1c(C(=O)Nc2ccc(Oc3ccnc(Nc4cccc(NC(=O)CN5CCN(C)CC5)c4)n3)cc2)c(=O)n(-c2ccccc2)n1C [Compound 14d]",
    "assay system": "Mer kinase (Homo sapiens)",
    "assigned label": "middle interval"
  },
  {
    "compound": "O=C(Nc1ccc(F)cc1)C1(C(=O)Nc2ccc(Oc3ccnc(Nc4ccc(CCC(O)c5ccccc5)cc4)n3)cc2)CC1 (stereo not drawn) [Compound 18f]",
    "assay system": "Mer kinase (Homo sapiens)",
    "assigned label": "high interval"
  },
  {
    "compound": "CC(=O)N1CCN(c2ccc(Nc3nccc(Oc4ccc(NC(=O)C5(C(=O)Nc6ccc(F)cc6)CC5)cc4)n3)cc2)CC1 [Compound 18a]",
    "assay system": "Mer kinase (Homo sapiens)",
    "assigned label": "high interval"
  },
  {
    "compound": "Cc1c(C(=O)Nc2ccc(Oc3ccnc(Nc4ccc(N(C)C(=O)CN5CCN(C)CC5)cc4)n3)cc2)c(=O)n(-c2ccccc2)n1C [Compound 14i]",
    "assay system": "Mer kinase (Homo sapiens)",
    "assigned label": "high interval"
  },
  {
    "compound": "Cc1c(C(=O)Nc2ccc(Oc3ccnc(Nc4ccc(NC(=O)CN5CCN(C)CC5)c(C#N)c4)n3)cc2)c(=O)n(-c2ccccc2)n1C [Compound 14g]",
    "assay system": "Mer kinase (Homo sapiens)",
    "assigned label": "low interval"
  }
]

# bin lookup: classify CN1CCN(CC(=O)Nc2ccc(Nc3nccc(Oc4ccc(NC(=O)C5(C(=O)Nc6ccc(F)cc6)CC5)cc4)n3)cc2)CC1 [Compound 18c] by its IC50
low interval

# bin lookup: classify Cc1c(C(=O)Nc2ccc(Oc3ccnc(Nc4cccc(C(=O)NCCCN5CCOCC5)c4)n3)cc2)c(=O)n(-c2ccccc2)n1C [Compound 14e] by its IC50
middle interval

---

Test system c-Met kinase (Homo sapiens, UniProt P08581), IC50 listed for each of the compounds.
Expressed in nM, but write only the number.

Use the examples below as a reference point.
[
  {
    "compound": "CC(C)N1CCN(CC(=O)Nc2ccc(Nc3nccc(Oc4ccc(NC(=O)C5(C(=O)Nc6ccc(F)cc6)CC5)cc4)n3)cc2)CC1 [Compound 18h]",
    "IC50 [nM]": 42.6
  },
  {
    "compound": "CCN1CCN(CC(=O)Nc2ccc(Nc3nccc(Oc4ccc(NC(=O)C5(C(=O)Nc6ccc(F)cc6)CC5)cc4)n3)cc2)CC1 [Compound 18g]",
    "IC50 [nM]": 48.7
  },
  {
    "compound": "Cc1c(C(=O)Nc2ccc(Oc3ccnc(Nc4ccc(NC(=O)CN5CCN(C)CC5)c(C#N)c4)n3)cc2)c(=O)n(-c2ccccc2)n1C [Compound 14g]",
    "IC50 [nM]": 89.4
  },
  {
    "compound": "CN1CCN(CC(=O)Nc2ccc(Nc3nccc(Oc4ccc(NC(=O)C5(C(=O)Nc6ccc(F)cc6)CC5)cc4)n3)cc2C#N)CC1 [Compound 18k]",
    "IC50 [nM]": 51.2
  },
  {
    "compound": "CN1CCN(CC(=O)Nc2ccc(Nc3nccc(Oc4ccc(NC(=O)C5(C(=O)Nc6ccc(F)cc6)CC5)cc4)n3)cc2F)CC1 [Compound 18l]",
    "IC50 [nM]": 48.7
  },
  {
    "compound": "Cc1c(C(=O)Nc2ccc(Oc3ccnc(Nc4ccc(C(=O)NCCCN5CCOCC5)cc4)n3)cc2)c(=O)n(-c2ccccc2)n1C [Compound 14a]",
    "IC50 [nM]": 151
  }
]

Item CC(=O)N1CCN(CC(=O)Nc2ccc(Nc3nccc(Oc4ccc(NC(=O)C5(C(=O)Nc6ccc(F)cc6)CC5)cc4)n3)cc2)CC1 [Compound 18j] with c-Met kinase (Homo sapiens, UniProt P08581) - IC50?
32.8

Item O=C(CN1CCN(CC2CC2)CC1)Nc1ccc(Nc2nccc(Oc3ccc(NC(=O)C4(C(=O)Nc5ccc(F)cc5)CC4)cc3)n2)cc1 [Compound 18i] with c-Met kinase (Homo sapiens, UniProt P08581) - IC50?
77.1

Item CC(=O)N1CCN(c2ccc(Nc3nccc(Oc4ccc(NC(=O)C5(C(=O)Nc6ccc(F)cc6)CC5)cc4)n3)cc2)CC1 [Compound 18a] with c-Met kinase (Homo sapiens, UniProt P08581) - IC50?
15.4

Item Cc1c(C(=O)Nc2ccc(Oc3ccnc(Nc4ccc(N(C)C(=O)CN5CCN(C)CC5)cc4)n3)cc2)c(=O)n(-c2ccccc2)n1C [Compound 14i] with c-Met kinase (Homo sapiens, UniProt P08581) - IC50?
224

Item CC(C(=O)Nc1ccc(Nc2nccc(Oc3ccc(NC(=O)C4(C(=O)Nc5ccc(F)cc5)CC4)cc3)n2)cc1)N1CCN(C)CC1 (stereo not shown) [Compound 18n] with c-Met kinase (Homo sapiens, UniProt P08581) - IC50?
30.7

Item CN1CCN(CC(=O)N(C)c2ccc(Nc3nccc(Oc4ccc(NC(=O)C5(C(=O)Nc6ccc(F)cc6)CC5)cc4)n3)cc2)CC1 [Compound 18m] with c-Met kinase (Homo sapiens, UniProt P08581) - IC50?
74.4

Item O=C(NCCCN1CCOCC1)c1ccc(Nc2nccc(Oc3ccc(NC(=O)C4(C(=O)Nc5ccc(F)cc5)CC4)cc3)n2)cc1 [Compound 18d] with c-Met kinase (Homo sapiens, UniProt P08581) - IC50?
52.7

---

# protocol summary: Liver microsome stability assay
# Type: in vitro ADME
# test context: pH 7.4; human liver microsomes 0.2 mg/mL, test compound 1 μM, NADPH; read-out: CL Human
readout kind: microsomal CLint at 1 μM (µL/min/mg)
Expressed in µL/min/mg, but write only the number.

Use the examples below as a reference point.
[
  {
    "compound": "CN1CCN(CC(=O)Nc2ccc(Nc3nccc(Oc4ccc(NC(=O)C5(C(=O)Nc6ccc(F)cc6)CC5)cc4)n3)cc2F)CC1 [Compound 18l]",
    "measure unit": "µL/min/mg",
    "microsomal CLint at 1 μM": 360
  },
  {
    "compound": "CN1CCN(CC(=O)Nc2ccc(Nc3nccc(Oc4ccc(NC(=O)C5(C(=O)Nc6ccc(F)cc6)CC5)cc4)n3)cc2)CC1 [Compound 18c]",
    "measure unit": "µL/min/mg",
    "microsomal CLint at 1 μM": 60
  },
  {
    "compound": "CN1CCN(CC(=O)Nc2cccc(Nc3nccc(Oc4ccc(NC(=O)C5(C(=O)Nc6ccc(F)cc6)CC5)cc4)n3)c2)CC1 [Compound 18o]",
    "measure unit": "µL/min/mg",
    "microsomal CLint at 1 μM": 400
  }
]

Shifting focus to the compound that follows.
Can you share its microsomal CLint at 1 μM? I mean this compound: CC(C(=O)Nc1ccc(Nc2nccc(Oc3ccc(NC(=O)C4(C(=O)Nc5ccc(F)cc5)CC4)cc3)n2)cc1)N1CCN(C)CC1 (stereo not shown) [Compound 18n]
290
